Molecular target: T1, Human IGF-I R (Glu 31-Asn 932 with a polyhistidine tag at the C-terminus) (human, UniProt P08069 31-932)
T1 construct: range 31-932; Bought protein; captured on Ni-NTA biosensors for BLI; also called IGF1R; IGF-1R; not shown: C-terminal polyhistidine tag
T1 sequence (P08069 31-932 limits assumed): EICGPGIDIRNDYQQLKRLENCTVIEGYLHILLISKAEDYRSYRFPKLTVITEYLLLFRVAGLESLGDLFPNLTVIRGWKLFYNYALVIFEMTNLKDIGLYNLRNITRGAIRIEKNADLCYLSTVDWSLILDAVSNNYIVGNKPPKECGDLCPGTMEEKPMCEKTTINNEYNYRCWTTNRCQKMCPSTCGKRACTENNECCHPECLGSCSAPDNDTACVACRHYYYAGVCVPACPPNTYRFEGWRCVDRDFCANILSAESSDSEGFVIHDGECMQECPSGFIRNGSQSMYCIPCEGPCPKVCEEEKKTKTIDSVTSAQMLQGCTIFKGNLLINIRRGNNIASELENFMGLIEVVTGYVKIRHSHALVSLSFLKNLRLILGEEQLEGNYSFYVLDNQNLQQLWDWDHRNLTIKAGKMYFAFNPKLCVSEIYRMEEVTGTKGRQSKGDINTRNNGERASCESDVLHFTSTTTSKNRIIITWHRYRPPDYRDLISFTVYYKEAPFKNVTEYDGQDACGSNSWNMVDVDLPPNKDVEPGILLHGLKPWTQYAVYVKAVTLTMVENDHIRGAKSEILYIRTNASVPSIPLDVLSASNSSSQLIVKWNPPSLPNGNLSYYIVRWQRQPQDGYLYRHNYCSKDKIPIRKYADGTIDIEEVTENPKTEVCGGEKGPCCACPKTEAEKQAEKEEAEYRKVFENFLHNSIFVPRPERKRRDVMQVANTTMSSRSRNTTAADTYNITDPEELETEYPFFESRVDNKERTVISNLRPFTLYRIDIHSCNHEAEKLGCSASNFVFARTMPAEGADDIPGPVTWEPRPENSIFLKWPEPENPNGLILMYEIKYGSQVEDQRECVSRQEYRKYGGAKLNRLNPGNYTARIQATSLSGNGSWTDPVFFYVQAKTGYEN
Test: BLI (Octet RED96e), His-tagged IGF-1R on Ni-NTA sensors, Fab 0-100 nM, 1:1 global fit
Recorded kon, one value per entry.
Write down the numeric answer in M⁻¹ s⁻¹ and omit the unit.

B02 Fab (Fab, V domains shown) VH: QVELVESGGGVVQPGRSQRLSCAASGFTFSSTGMHWVRQAPGKGLEWVAYIWFDGSSTYYADSVRGRFTISRDNSKNTLYLQMNSLRAEDTAVYFCARELNRRYFDLWGRGTLVSVSS VL: EIVLTQSPATLSLSPGERATLSCRASQSVSSYLAWYQQKPGQAPRLLIYDASKRATGIPARFSGSGSGTDFTLTISSLEPEDFAVYYCQQRSKYPPWTFGQGTKVESK: 810000
D03 Fab (Fab, V domains shown, also called clone D03) VH: QVELVESGGGVVQPGRSQRLSCAASGFTFSSHGMHWVRQAPGKGLEWVAYIWFDGSSTYYADSVRGRFTISRDNSKNTLYLQMNSLRAEDTAVYFCARELGRRYFDLWGRGTLVSVSS VL: EIVLTQSPATLSLSPGERATLSCRASQSVSSALAWYQQKPGQAPRLLIYDASKRATGIPARFSGSGSGTDFTLTISSLEPEDFAVYYCQQRSKYPPWTFGQGTKVESK: 1.48e+06
H11 Fab (Fab, V domains shown) VH: QVELVESGGGVVQPGRSQRLSCAASGFTFSSYGMHWVRQAPGKGLEWVATIWHDGSSTYYADSVRGRFTISRDNSKNTLYLQMNSLRAEDTAVYFCARELGRRYFDLWGRGTLVSVSS VL: EIVLTQSPATLSLSPGERATLSCRASQSVSSALAWYQQKPGQAPRLLIYDASKRATGIPARFSGSGSGTDFTLTISSLEPEDFAVYYCQQRGKYPPWTFGQGTKVESK: 1.78e+06

Task item: Could you tell me which kon is on file for F02 Fab (Fab, V domains shown) VH: QVELVESGGGVVQPGRSQRLSCAASGFTFSSHGMHWVRQAPGKGLEWVATIWFDGSSTYYADSVRGRFTISRDNSKNTLYLQMNSLRAEDTAVYFCARELGRRYFDLWGRGTLVSVSS VL: EIVLTQSPATLSLSPGERATLSCRASQSVSSTLAWYQQKPGQAPRLLIYDASKRATGIPARFSGSGSGTDFTLTISSLEPEDFAVYYCQQRSKYPPWTFGQGTKVESK ?
Reply: 1.2e+06

Task item: Also E01 Fab (Fab, V domains shown) VH: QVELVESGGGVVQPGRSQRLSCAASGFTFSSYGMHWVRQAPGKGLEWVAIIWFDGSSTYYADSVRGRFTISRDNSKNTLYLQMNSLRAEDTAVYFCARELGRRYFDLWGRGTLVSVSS VL: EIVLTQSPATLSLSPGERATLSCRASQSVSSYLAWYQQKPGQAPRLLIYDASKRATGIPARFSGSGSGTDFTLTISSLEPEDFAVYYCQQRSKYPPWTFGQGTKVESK ?
Reply: 2.66e+06

Data origin: patent US20230406942A1
